assayed_system: Serine/threonine-protein kinase Chk2 (Homo sapiens)
Sequence (O96017 whole entry): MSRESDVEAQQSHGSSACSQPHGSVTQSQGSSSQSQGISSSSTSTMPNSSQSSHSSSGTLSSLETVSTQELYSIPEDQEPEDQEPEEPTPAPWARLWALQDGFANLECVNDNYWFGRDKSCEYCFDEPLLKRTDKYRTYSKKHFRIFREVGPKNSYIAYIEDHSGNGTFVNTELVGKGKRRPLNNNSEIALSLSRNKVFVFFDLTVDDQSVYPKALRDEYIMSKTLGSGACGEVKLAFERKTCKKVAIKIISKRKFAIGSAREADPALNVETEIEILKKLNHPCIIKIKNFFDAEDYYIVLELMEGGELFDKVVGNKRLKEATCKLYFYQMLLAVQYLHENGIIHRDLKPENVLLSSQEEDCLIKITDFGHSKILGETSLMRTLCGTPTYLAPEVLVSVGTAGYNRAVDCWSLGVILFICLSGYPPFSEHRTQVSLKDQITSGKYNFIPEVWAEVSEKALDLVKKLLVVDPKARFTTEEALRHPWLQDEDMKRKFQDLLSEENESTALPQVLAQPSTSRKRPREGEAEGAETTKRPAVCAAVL
test_method_notes: Inhibition of CHK2 at 30 uM by microfluidic mobility shift assay
measurement_name: inhibition (%)
Answers are plain numbers, in %.

[
  {
    "molecule": "Cn1nc(N)c2c(=O)[nH]c(-c3ccccn3)cc21",
    "recorded_number": 25
  },
  {
    "molecule": "COc1cccc(-c2cc3c(c(N)nn3C)c(=O)[nH]2)c1",
    "recorded_number": 31
  }
]

Field: next compound
Query block: Which inhibition value belongs to `Cc1cc2c(cn1)c(N)nn2C` ?
Result block: 3

###

Record form. Attribute: inhibition. Fill in for each entry.
assayed_system: Insulin receptor (Homo sapiens)
test_method_notes: Inhibition of INSR at 30 uM by microfluidic mobility shift assay
One number for each entry, in %.

Use these answered entries as a reference point.
[
  {
    "molecule": "CN1CCN(c2ccc(-c3cc4nn(-c5ccccc5)c(N)c4c(=O)[nH]3)cc2)CC1",
    "assayed_system": "Insulin receptor (Homo sapiens)",
    "inhibition [%]": 8
  },
  {
    "molecule": "Cc1cc2[nH]nc(N)c2c(N2CCOCC2)n1",
    "assayed_system": "Insulin receptor (Homo sapiens)",
    "inhibition [%]": 0
  },
  {
    "molecule": "Cc1cc2[nH]nc(N)c2cn1",
    "assayed_system": "Insulin receptor (Homo sapiens)",
    "inhibition [%]": 5
  },
  {
    "molecule": "CC(C)(C)c1cc2nn(-c3ccccc3)c(N)c2c(=O)[nH]1",
    "assayed_system": "Insulin receptor (Homo sapiens)",
    "inhibition [%]": 4
  },
  {
    "molecule": "Cn1nc(N)c2cnc(-c3ccccc3)cc21",
    "assayed_system": "Insulin receptor (Homo sapiens)",
    "inhibition [%]": 9
  },
  {
    "molecule": "COCCNc1nc(-c2ccccc2)cc2c1c(N)nn2C",
    "assayed_system": "Insulin receptor (Homo sapiens)",
    "inhibition [%]": 1
  }
]

Would you mind giving inhibition for every molecule in the list below?
1. COc1ccccc1-c1cc2nn(-c3ccccc3)c(N)c2c(=O)[nH]1
2. CC(C)(C)c1cc2[nH]nc(N)c2c(=O)[nH]1
3. Cc1cc2nn(-c3ccccc3)c(N)c2c(N2CCCCC2)n1
4. COCCNc1nc(C)cc2nn(-c3ccccc3)c(N)c12

Result block:
1. -2
2. 14
3. -2
4. 1

Would you mind giving inhibition for every molecule in the list below?
1. CC(=O)Nc1nn(C)c2cc(-c3ccccc3)[nH]c(=O)c12
2. Cn1nc(N)c2c(=O)[nH]c(-c3ccccn3)cc21
3. Cc1cc2[nH]nc(N)c2c(N2CCCCC2)n1
4. Cc1cc2c(c(NS(C)(=O)=O)nn2C)c(=O)[nH]1
5. Cn1nc(N)c2c(=O)[nH]c(-c3ccccc3)cc21
6. COc1ccc(-c2cc3c(c(N)nn3C)c(=O)[nH]2)cc1

Result block:
1. 5
2. 16
3. 9
4. -6
5. 2
6. 5

Would you mind giving inhibition for every molecule in the list below?
1. Cc1cc2c(cn1)c(N)nn2C
2. Cn1nc2c3c(nc(-c4ccccc4)cc31)NCC(=O)N2
3. Cc1cc2c(c(N)nn2C)c(N2CCCCC2)n1
4. Nc1c2c(=O)[nH]c(-c3ccccn3)cc2nn1-c1ccccc1
5. Nc1n[nH]c2cc(-c3ccc(N4CCOCC4)cc3)[nH]c(=O)c12
6. Cc1cc2c(c(NC(=O)Nc3ccccc3)nn2C)c(=O)[nH]1
7. Nc1n[nH]c2cc(-c3ccncc3)[nH]c(=O)c12

Result block:
[-3, 2, -2, 4, 6, -5, 9]

Would you mind giving inhibition for every molecule in the list below?
1. Nc1c2c(=O)[nH]c(-c3ccccc3)cc2nn1-c1ccccc1
2. COc1cccc(-c2cc3c(c(N)nn3C)c(=O)[nH]2)c1

Result block:
[2, 6]
